Measured values drawn from PubChem BioAssay (NCATS) for this set.

# Test system: CAOV3
# PROTOCOL DETAILS: Primary qHTS to identify gynecologic anti-cancer compounds using libraries of approved drugs and bioactive compounds (AID 1345084); note: nearly all actives have a fitted effect of over 55% in size
# CONDITION INFO: Gynecologic cancer cell panel viability, ATPlite luminescence, 48 h; series mostly up to 57.5 µM
Results filed as inconclusive are left out. Calls of active or inactive are those of the source. Calls come from the whole dose curve; as a rule, active = well fitted cell-killing curve with a large enough effect; inconclusive = small, poorly fitted or top-dose-only effect, or effect the other way; inactive = flat fitted curve, though single readings scatter.
MEASURE: outcome

>>> result("C[C@@H]1CC[C@@]2(OC1)O[C@H]1C[C@H]3[C@@H]4CC=C5C[C@@H](O)CC[C@]5(C)[C@H]4CC[C@]3(C)[C@H]1[C@@H]2C")
"inactive"
>>> result("C[C@@H]1C(=O)O[C@H](C)[C@H]1CC(=O)[C@](C)(O)[C@H]1CC[C@@]2(O)C3=CC(=O)[C@@H]4C[C@@H](O)[C@@H](O)C[C@]4(C)C3CC[C@]12C (stereo partly drawn)")
"inactive"
>>> result("COC(=O)C1=CO[C@@H](O[C@@H]2O[C@H](CO[C@@H]3O[C@H](COC(=O)/C=C/c4cc(OC)c(O)c(OC)c4)[C@@H](O)[C@H](O)[C@H]3O)[C@@H](O)[C@H](O)[C@H]2O)[C@@H]2C(CO)=CC[C@H]12")
"inactive"

###

# PROTOCOL DETAILS: qHTS to identify inhibitors of the type 1 interferon - major histocompatibility complex class I in skeletal muscle: primary screen against the NCATS Mechanism Interrogation Plate v5.0 (MIPE) Libary (AID 1347411); note: nearly all actives have a fitted effect of over 65% in size
# CONDITION INFO: iHSKM cells + IFN-b, HiBiT-tagged MHC-I luminescence, 24 h; series mostly up to 45.8 µM
Records with an inconclusive call do not appear. Active and inactive are the calls of the source. Calls come from the whole dose curve; as a rule, active = well fitted inhibition curve with a large enough effect; inconclusive = small, poorly fitted or top-dose-only effect; inactive = no such curve, though single readings can be large or run the other way.
Give your call using only these classes: active, inactive

QUERY: Dear colleague, could you share the recorded outcome for CN[C@@H]1[C@H](O[C@H]2[C@H](O[C@@H]3[C@@H](O)[C@H](O)[C@@H](N=C(N)N)[C@H](O)[C@H]3N=C(N)N)O[C@@H](C)[C@]2(O)C=O)O[C@@H](CO)[C@H](O)[C@H]1O when you have a moment?
RESULT: inactive

QUERY: Please indicate how the test categorized CC1=C(CO)C(=O)O[C@@H]([C@@H](C)[C@H]2CC[C@H]3[C@@H]4C[C@H]5O[C@]56[C@@H](O)C=CC(=O)[C@]6(C)[C@H]4CC[C@]23C)C1 .
RESULT: active

QUERY: Dear colleague, could you share the recorded outcome for Cc1cc(Nc2cc(N3CCN(C)CC3)nc(/C=C/c3ccccc3)n2)n[nH]1 when you have a moment?
RESULT: active

QUERY: I would be grateful if you could indicate the recorded call for CCN1CCN(Cc2ccc(Nc3ncc(F)c(-c4cc(F)c5nc(C)n(C(C)C)c5c4)n3)nc2)CC1 .
RESULT: active

QUERY: Record lookup: outcome of this test for Cc1ccc(NC(=O)c2ccc(CN3CC[C@H](N(C)C)C3)c(C(F)(F)F)c2)cc1Nc1nccc(-c2cncnc2)n1 ?
RESULT: active

QUERY: Test call, this molecule: COc1cc2ncnc(Nc3cccc(Cl)c3F)c2cc1OC(=O)N1CCN(C)C[C@H]1C
RESULT: inactive

QUERY: Answer briefly: the call reported for CCOc1cc(C(=O)N2CCC(N3CCN(C)CC3)CC2)ccc1Nc1ncc2c(n1)N(C1CCCC1)c1ccccc1C(=O)N2C in this assay.
RESULT: active
